The reader will find reported total protein half-life in vivo values listed item by item below.
# assay-details: total protein half-life in vivo (active degradation + dilution); higher = more stable protein
# applied-conditions: E. coli NCM3722 delta-clpP; growth: N-lim chemostat; doubling time 6 h
Report the figure in h without appending any unit label.

input-sequence	total protein half-life in vivo (h)
MTEQQISRTQAWLESLRPKTLPLAFAAIIVGTALAWWQGHFDPLVALLALITAGLLQILSNLANDYGDAVKGSDKPDRIGPLRGMQKGVITQQEMKRALIITVVLICLSGLALVAVACHTLADFVGFLILGGLSIIAAITYTVGNRPYGYIGLGDISVLVFFGWLSVMGSWYLQAHTLIPALILPATACGLLATAVLNINNLRDINSDRENGKNTLVVRLGEVNARRYHACLLMGSLVCLALFNLFSLHSLWGWLFLLAAPLLVKQARYVMREMDPVAMRPMLERTVKGALLTNLLFVLGIFLSQWAA	5.65
MSDKFGEGRDPYLYPGLDIMRNRLNIRQQQRLEQAAYEMTALRAATIELGPLVRGLPHLRTIHRQLYQDIFDWAGQLREVDIYQGDTPFCHFAYIEKEGNALMQDLEEEGYLVGLEKAKFVERLAHYYCEINVLHPFRVGSGLAQRIFFEQLAIHAGYQLSWQGIEKEAWNQANQSGAMGDLTALQMIFSKVVSEAGESE	4.09
MANRMILNETAWFGRGAVGALTDEVKRRGYQKALIVTDKTLVQCGVVAKVTDKMDAAGLAWAIYDGVVPNPTITVVKEGLGVFQNSGADYLIAIGGGSPQDTCKAIGIISNNPEFADVRSLEGLSPTNKPSVPILAIPTTAGTAAEVTINYVITDEEKRRKFVCVDPHDIPQVAFIDADMMDGMPPALKAATGVDALTHAIEGYITRGAWALTDALHIKAIEIIAGALRGSVAGDKDAGEEMALGQYVAGMGFSNVGLGLVHGMAHPLGAFYNTPHGVANAILLPHVMRYNADFTGEKYRDIARVMGVKVEGMSLEEARNAAVEAVFALNRDVGIPPHLRDVGVRKEDIPALAQAALDDVCTGGNPREATLEDIVELYHTAW [P0A9S1]	3.35
MSIRIIPQDELGSSEKRTADMIPPLLFPRLKNLYNRRAERLRELAENNPLGDYLRFAALIAHAQEVVLYDHPLEMDLTARIKEASAQGKPPLDIHVLPRDKHWQKLLMALIAELKPEMSGPALAVIENLEKASTQELEDMASALFASDFSSVSSDKAPFIWAALSLYWAQMANLIPGKARAEYGEQRQYCPVCGSMPVSSMVQIGTTQGLRYLHCNLCETEWHVVRVKCSNCEQSGKLHYWSLDDEQAAIKAESCDDCDTYLKILYQEKDPKIEAVADDLASLVLDARMEQEGYARSSINPFLFPGEGE	4.49
MSKVCIIAWVYGRVQGVGFRYTTQYEAKRLGLTGYAKNLDDGSVEVVACGEEGQVEKLMQWLKSGGPRSARVERVLSEPHHPSGELTDFRIR [P0AB65]	5.82

Reported total protein half-life in vivo of "MDNDKIDQHSDEIEVESEEKERGKKIEIDEDRLPSRAMAIHEHIRQDGEKELERDAMALLWSAIAAGLSMGASLLAKGIFQVELEGVPGSFLLENLGYTFGFIIVIMARQQLFTENTVTAVLPVMQKPTMSNVGLLIRLWGVVLLGNILGTGIAAWAFEYMPIFNEETRDAFVKIGMDVMKNTPSEMFANAIISGWLIATMVWMFPAAGAAKIVVIILMTWLIALGDTTHIVVGSVEILYLVFNGTLHWSDFIWPFALPTLAGNICGGTFIFALMSHAQIRNDMSNKRKAEARQKAERAENIKKNYKNPA" : 5.38
